- tested on: NMDA receptor (GRIN1/GRIN2A subunits) (Homo sapiens, UniProt Q05586+Q12879)
- Construct: expressed in transfected cells
- Sequence (Q12879 23-1464, other chains not shown): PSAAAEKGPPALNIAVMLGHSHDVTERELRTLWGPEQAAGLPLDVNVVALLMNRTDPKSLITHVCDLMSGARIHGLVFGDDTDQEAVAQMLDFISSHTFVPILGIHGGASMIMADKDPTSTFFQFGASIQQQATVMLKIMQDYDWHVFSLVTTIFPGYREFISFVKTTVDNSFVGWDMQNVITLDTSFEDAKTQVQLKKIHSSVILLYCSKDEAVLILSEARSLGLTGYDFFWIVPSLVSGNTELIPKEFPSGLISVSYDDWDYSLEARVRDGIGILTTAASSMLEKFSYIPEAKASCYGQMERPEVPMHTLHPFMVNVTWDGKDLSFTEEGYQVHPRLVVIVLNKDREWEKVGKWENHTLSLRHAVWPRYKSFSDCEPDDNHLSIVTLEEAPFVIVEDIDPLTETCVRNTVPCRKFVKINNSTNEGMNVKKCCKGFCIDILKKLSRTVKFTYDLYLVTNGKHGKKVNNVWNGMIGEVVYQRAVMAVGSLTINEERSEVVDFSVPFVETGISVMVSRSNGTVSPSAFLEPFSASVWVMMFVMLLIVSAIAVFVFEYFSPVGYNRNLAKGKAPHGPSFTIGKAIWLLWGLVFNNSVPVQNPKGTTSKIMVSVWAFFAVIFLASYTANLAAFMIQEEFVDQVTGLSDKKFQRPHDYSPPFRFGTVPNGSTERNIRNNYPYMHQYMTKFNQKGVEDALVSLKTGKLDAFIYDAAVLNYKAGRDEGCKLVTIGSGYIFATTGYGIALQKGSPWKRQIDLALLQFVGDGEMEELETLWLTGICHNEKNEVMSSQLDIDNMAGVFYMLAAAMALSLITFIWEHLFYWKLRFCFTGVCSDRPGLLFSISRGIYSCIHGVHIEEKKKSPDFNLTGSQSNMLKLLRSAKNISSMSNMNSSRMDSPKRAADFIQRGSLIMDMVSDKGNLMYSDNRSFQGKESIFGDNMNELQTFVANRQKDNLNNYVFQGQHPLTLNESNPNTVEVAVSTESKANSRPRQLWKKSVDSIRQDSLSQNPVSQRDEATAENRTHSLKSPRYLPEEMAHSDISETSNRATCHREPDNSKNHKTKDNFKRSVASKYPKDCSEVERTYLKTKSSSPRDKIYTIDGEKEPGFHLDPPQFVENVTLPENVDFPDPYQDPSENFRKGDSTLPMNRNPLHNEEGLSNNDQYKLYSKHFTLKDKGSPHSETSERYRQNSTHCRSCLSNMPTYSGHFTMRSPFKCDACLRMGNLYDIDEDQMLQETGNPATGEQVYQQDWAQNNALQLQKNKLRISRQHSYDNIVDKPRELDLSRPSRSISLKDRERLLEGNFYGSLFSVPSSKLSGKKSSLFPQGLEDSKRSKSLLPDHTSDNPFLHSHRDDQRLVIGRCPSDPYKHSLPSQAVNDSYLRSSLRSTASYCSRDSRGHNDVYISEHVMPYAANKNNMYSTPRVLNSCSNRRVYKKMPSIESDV
- protocol details: NMDA potentiation, whole-cell patch clamp of HEK cells expressing NMDA receptor
- Assay type: cell-based
- condition details: HEK293, 0.1 uM compound; HEK cells; 30 μM NMDA and 5.0 μM Glycine; read-out: NMDA 1a2A (%) Potentiation 0.1 uM
measured metric: activation at 0.1 µM

compound CC(O)CCC(C)[C@H]1CC[C@H]2[C@@H]3CC=C4C[C@@H](O)CC[C@]4(C)[C@H]3CC[C@]12C (stereo partly drawn) [Comparison compound 1, reference compound] , activation at 0.1 µM observed: 10 to 75%

compound C[C@H](CCC(O)C(F)(F)F)[C@H]1CC[C@H]2[C@@H]3CC[C@H]4C[C@@](C)(O)CC[C@]4(C)[C@H]3CC[C@]12C (stereo partly drawn) [Compound 1-12] , activation at 0.1 µM observed: 10 to 75%

compound CC(CCC(C)(C)O)[C@H]1CC[C@H]2[C@@H]3CC=C4C[C@@](C)(O)CC[C@]4(C)[C@H]3CC[C@]12C (stereo partly drawn) [Comparison compound 2, reference compound] , activation at 0.1 µM observed: 75 to 150%

compound C[C@H](CCC(C)(O)C1CC1)[C@H]1CC[C@H]2[C@@H]3CC=C4C[C@@](C)(O)CC[C@]4(C)[C@H]3CC[C@]12C (stereo partly drawn) [Compound 9-2] , activation at 0.1 µM observed: 150 to 250%

compound C[C@H](CC[C@@H](O)C(F)(F)F)[C@H]1CC[C@H]2[C@@H]3CC=C4C[C@@](C)(O)CC[C@]4(C)[C@H]3CC[C@]12C [Compound 1-17] , activation at 0.1 µM observed: 150 to 250%

Attention now turns to another entry.
compound C[C@H](CCC(C)(C)O)[C@H]1CC[C@H]2[C@@H]3CC=C4C[C@@H](O)CC[C@]4(C)[C@H]3CC[C@]12C (stereo in doubt) [Org-1, reference compound] , activation at 0.1 µM observed: 10 to 75%

###

Parameter: activation at 0.1 µM. Scope: all listed entries.
- tested on: NMDA receptor (GRIN1/GRIN2A subunits) (Homo sapiens, UniProt Q05586+Q12879)
- Construct: expressed in transfected cells
- protocol details: NMDA potentiation, whole-cell patch clamp of HEK cells expressing NMDA receptor
- Assay type: cell-based
- condition details: HEK293, 0.1 uM compound; HEK cells; 30 μM NMDA and 5.0 μM Glycine; read-out: NMDA 1a2A (%) Potentiation 0.1 uM

compound CCCC(C)(O)CC[C@@H](C)[C@H]1CC[C@H]2[C@@H]3CC=C4C[C@@](C)(O)CC[C@]4(C)[C@H]3CC[C@]12C (some centres unmarked) [Compound 5-2] , activation at 0.1 µM observed: 75 to 150%

compound CCC(C)(O)CC[C@@H](C)[C@H]1CC[C@H]2[C@@H]3CC=C4C[C@@](C)(O)CC[C@]4(C)[C@H]3CC[C@]12C (some centres unmarked) [Compound 4-6] , activation at 0.1 µM observed: 150 to 250%

compound C[C@H](CC[C@H](O)C(F)(F)F)[C@H]1CC[C@H]2[C@@H]3CC=C4C[C@@](C)(O)CC[C@]4(C)[C@H]3CC[C@]12C [Compound 1-15] , activation at 0.1 µM observed: 75 to 150%

compound CC(C)C(C)(O)CC[C@@H](C)[C@H]1CC[C@H]2[C@@H]3CC=C4C[C@@](C)(O)CC[C@]4(C)[C@H]3CC[C@]12C (some centres unmarked) [Compound 8-2] , activation at 0.1 µM observed: 75 to 150%

compound CCCCC(C)(O)CC[C@@H](C)[C@H]1CC[C@H]2[C@@H]3CC=C4C[C@@](C)(O)CC[C@]4(C)[C@H]3CC[C@]12C (some centres unmarked) [Compound 7-2] , activation at 0.1 µM observed: 10 to 75%

compound CC(C)(O)CCC[C@H]1CC[C@H]2[C@@H]3CC[C@H]4C[C@@](C)(O)CC[C@]4(C)[C@H]3CC[C@]12C [Comparison compound 4, reference compound] , activation at 0.1 µM observed: 10 to 75%

compound C=CCC(C)(O)CC[C@@H](C)[C@H]1CC[C@H]2[C@@H]3CC=C4C[C@@](C)(O)CC[C@]4(C)[C@H]3CC[C@]12C (some centres unmarked) [Compound 6-2] , activation at 0.1 µM observed: 75 to 150%

compound CC(C)C(C)(O)CC[C@@H](C)[C@H]1CC[C@H]2[C@@H]3CC[C@H]4C[C@@](C)(O)CC[C@]4(C)[C@H]3CC[C@]12C (some centres unmarked) [Compound 8-3] , activation at 0.1 µM observed: 75 to 150%

New cases:
compound CCCC(C)(O)CC[C@@H](C)[C@H]1CC[C@H]2[C@@H]3CC[C@H]4C[C@@](C)(O)CC[C@]4(C)[C@H]3CC[C@]12C (some centres unmarked) [Compound 5-3] , activation at 0.1 µM observed: 10 to 75%

compound CC(CCC(C)(C)O)[C@H]1CC[C@H]2[C@@H]3CC[C@H]4C[C@@](C)(O)CC[C@]4(C)[C@H]3CC[C@]12C (some centres unmarked) [Comparison compound 3, reference compound] , activation at 0.1 µM observed: 75 to 150%

compound C[C@H](CCC(O)C(F)(F)F)[C@H]1CC[C@H]2[C@@H]3CC=C4C[C@@](C)(O)CC[C@]4(C)[C@H]3CC[C@]12C (some centres unmarked) [Compound 1-11] , activation at 0.1 µM observed: 150 to 250%
